- Organism: Canis familiaris
- test description: In vitro metabolic stability in dog hepatic microsomes (1 mg protein/mL), expressed as the percent remaining after 30 min of incubation at […].
- Assay type: functional
- applied conditions: Canis lupus familiaris, Liver, 37 °C
Provide the recorded Metabolic stability for the entries that follow.
Please state the number and follow it with the unit.

Please report Metabolic stability for every entry that follows.
1. O=C(NC1CCN(Cc2ccsc2)CC1)[C@](O)(c1ccccc1)[C@@H]1CCC(F)(F)C1
2. Cc1cccc(CN2CCC(NC(=O)[C@](O)(c3ccccc3)[C@@H]3CCC(F)(F)C3)CC2)c1

A.
37%
32%

Please report Metabolic stability for every entry that follows.
1. CC(C)=CCCN1CCC(NC(=O)[C@](O)(c2ccccc2)C2CCCC2)CC1
2. O=C(NC1CCN(Cc2ccccn2)CC1)[C@](O)(c1ccccc1)[C@@H]1CCC(F)(F)C1
3. NCc1cccc(CN2CCC(NC(=O)[C@](O)(c3ccccc3)[C@@H]3CCC(F)(F)C3)CC2)c1
4. Nc1cccc(CN2CCC(NC(=O)[C@](O)(c3ccccc3)[C@@H]3CCC(F)(F)C3)CC2)c1

A.
["31%", "45%", "77%", "88%"]

Please report Metabolic stability for every entry that follows.
1. Nc1ccc(CN2CCC(NC(=O)[C@](O)(c3ccccc3)[C@@H]3CCC(F)(F)C3)CC2)cc1F
2. CC(C)=CCCN1CCC(NC(=O)[C@](O)(c2ccccc2)[C@H]2CC[C@H](F)C2)CC1
3. O=C(NC1CCN(CC2CCCCC2)CC1)[C@](O)(c1ccccc1)[C@@H]1CCC(F)(F)C1
4. Cc1cccc(CN2CCC(NC(=O)[C@](O)(c3ccccc3)[C@@H]3CCC(F)(F)C3)CC2)n1

A.
1: 78%; 2: 60%; 3: 70%; 4: 24%

---

- system tested: UniProtKB P20309
- Sequence (P20309 whole entry): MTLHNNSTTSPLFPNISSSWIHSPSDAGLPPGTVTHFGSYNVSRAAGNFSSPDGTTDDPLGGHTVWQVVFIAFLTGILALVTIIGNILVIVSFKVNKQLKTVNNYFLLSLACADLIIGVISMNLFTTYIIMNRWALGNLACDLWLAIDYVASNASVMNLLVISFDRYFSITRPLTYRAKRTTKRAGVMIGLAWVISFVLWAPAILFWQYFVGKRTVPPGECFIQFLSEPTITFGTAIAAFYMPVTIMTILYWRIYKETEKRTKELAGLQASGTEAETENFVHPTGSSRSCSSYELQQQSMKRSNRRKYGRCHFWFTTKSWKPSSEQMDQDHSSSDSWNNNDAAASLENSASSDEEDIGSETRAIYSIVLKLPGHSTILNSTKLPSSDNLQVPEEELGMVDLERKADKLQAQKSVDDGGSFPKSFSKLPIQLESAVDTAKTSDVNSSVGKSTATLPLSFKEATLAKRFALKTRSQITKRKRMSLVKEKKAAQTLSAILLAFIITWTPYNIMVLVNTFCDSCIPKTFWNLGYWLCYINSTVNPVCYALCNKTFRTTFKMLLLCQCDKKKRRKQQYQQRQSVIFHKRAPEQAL
- test description: Ability to inhibit binding of [3H]NMS was determined by receptor binding assay using membranes from chinese hamster ovary (CHO) cells expressing cloned Muscarinic acetylcholine receptor M3
- Format: cell membranes
measured quantity: pKi
One number for each entry, as −log10 of the molar value.

O=C(NC1CCN(CC2CCCCCC2)CC1)[C@](O)(c1ccccc1)[C@@H]1CCC(F)(F)C1 = 7.55

Shift focus to the following entry.
Q. Look up UniProtKB P20309 data: pKi of `Cc1cccc(CN2CCC(NC(=O)[C@](O)(c3ccccc3)[C@@H]3CCC(F)(F)C3)CC2)c1` , then report it.
A. 8.70

---

- system tested: Muscarinic acetylcholine receptor M2 (Homo sapiens, UniProt P08172)
- Sequence (P08172 whole entry): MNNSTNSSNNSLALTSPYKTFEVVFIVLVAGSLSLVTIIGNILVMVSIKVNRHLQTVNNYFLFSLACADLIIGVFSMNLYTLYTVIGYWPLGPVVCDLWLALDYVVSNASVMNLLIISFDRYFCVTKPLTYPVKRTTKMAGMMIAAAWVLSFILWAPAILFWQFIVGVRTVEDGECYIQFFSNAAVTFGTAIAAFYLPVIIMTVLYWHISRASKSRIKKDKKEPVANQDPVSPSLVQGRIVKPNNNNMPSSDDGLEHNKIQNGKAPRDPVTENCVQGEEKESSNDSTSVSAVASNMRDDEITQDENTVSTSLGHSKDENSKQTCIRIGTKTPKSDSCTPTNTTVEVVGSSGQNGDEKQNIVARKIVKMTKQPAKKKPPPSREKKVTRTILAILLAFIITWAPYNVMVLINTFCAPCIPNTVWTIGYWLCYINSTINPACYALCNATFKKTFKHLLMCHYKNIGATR
measured quantity: Ki (µM)
Numbers only, in µM.

O=C(NC1CCN(CC2CCCC2)CC1)C(O)(c1ccccc1)C1CCCC1 (centres undefined) = 14
O=C(NC1CCN(Cc2ccoc2)CC1)C(O)(c1ccccc1)C1CCCC1 (centres undefined) = 1.8
Cc1cccc(CN2CCC(NC(=O)[C@](O)(c3ccccc3)[C@@H]3CCC(F)(F)C3)CC2)c1 = 0.31
O=C(NC1CCN(Cc2ccccn2)CC1)C(O)(c1ccccc1)C1CCCC1 (centres undefined) = 0.32
O=C(NC1CCN(Cc2ccncc2)CC1)C(O)(c1ccccc1)C1CCCC1 (centres undefined) = 6.4
CC(C)=CCCN1CCC(NC(=O)[C@](O)(c2ccccc2)[C@@H]2CCC(F)(F)C2)CC1 = 2
Nc1ccc(CN2CCC(NC(=O)[C@](O)(c3ccccc3)[C@@H]3CCC(F)(F)C3)CC2)cc1 = 0.22
CC(C)=CCCN1CCC(NC(=O)[C@](O)(c2ccccc2)[C@H]2CC[C@H](O)C2)CC1 = 2.3

Q. Identify measured Ki associated with O=C(NC1CCN(Cc2ccccc2)CC1)C(O)(c1ccccc1)C1CCCC1 (centres undefined)
A. 0.03

---

- Organism: Canis familiaris
- test description: In vitro metabolic stability in dog hepatic microsomes (1 mg protein/mL), expressed as the percent remaining after 30 min of incubation at […].
- Format: functional
- applied conditions: Canis lupus familiaris, Liver, 37 °C
measured quantity: Metabolic stability

O=C(NC1CCN(Cc2cccc(O)c2)CC1)[C@](O)(c1ccccc1)[C@@H]1CCC(F)(F)C1 = 73%

Please report Metabolic stability for every entry that follows.
1. CC(C)=CCCN1CCC(NC(=O)[C@](O)(c2ccccc2)[C@@H]2CCC(F)(F)C2)CC1
2. Nc1cccc(CN2CCC(NC(=O)[C@](O)(c3ccccc3)[C@@H]3CCC(F)(F)C3)CC2)n1

A.
1: 70%; 2: 84%

Please report Metabolic stability for every entry that follows.
1. COc1cccc(CN2CCC(NC(=O)[C@](O)(c3ccccc3)[C@@H]3CCC(F)(F)C3)CC2)c1
2. CC(C)=CCCN1CCC(NC(=O)[C@](O)(c2ccccc2)[C@H]2CC[C@@H](F)C2)CC1
3. O=C(NC1CCN(Cc2cccc(CO)c2)CC1)[C@](O)(c1ccccc1)[C@@H]1CCC(F)(F)C1
4. O=C(NC1CCN(Cc2cccc(F)c2)CC1)[C@](O)(c1ccccc1)[C@@H]1CCC(F)(F)C1
5. O=C(NC1CCN(Cc2ccccc2)CC1)[C@](O)(c1ccccc1)[C@@H]1CCC(F)(F)C1
6. CC(C)=CCCN1CCC(NC(=O)[C@](O)(c2ccccc2)[C@H]2CCC(F)(F)C2)CC1

A.
53%
64%
73%
23%
45%
77%

Please report Metabolic stability for every entry that follows.
1. CC(C)=CCCN1CCC(NC(=O)[C@](O)(c2ccccc2)[C@H]2CC[C@H](O)C2)CC1
2. Nc1ccc(CN2CCC(NC(=O)[C@](O)(c3ccccc3)[C@@H]3CCC(F)(F)C3)CC2)cc1

A.
1. 75%
2. 89%
